// provenance: PubChem BioAssay

# testedSystem: Alpha-bungarotoxin (Bungarus multicinctus)
# experimentalProtocol: compounds binding labelled alpha-BTX control protein – biochemical, small-molecule microarray, Alexa647 label, 635/667 nm fluorescence, artefact control for SMM control protein annotation, profiling panel (AID 1117)
# conditionParameters: alpha-BTX-A647 binding fluorescence, higher = more signal
Could you please classify the records by composite z-score using these ranges: group 1 = under -0.1, group 2 = from -0.1 up to 0.3, group 3 = 0.3 and over

Hey, which category is Cc1ccc(C2C3C(=O)CC4C(=O)N(c5ccccc5)C(=O)C4C3CN2S(=O)(=O)c2ccc(C)cc2)cc1 (stereo not given) in, do you know?
group 3

For this molecule, which bin applies? CCCC[C@H]1C[C@@H]1[C@@H]1N(P(=O)(c2ccccc2)c2ccccc2)C[C@@](O)(c2ccccc2)CC12CC2
group 2

For the record CCCC[C@@H]1C[C@H]1[C@@H](NC(=O)c1cccnc1)c1ccc(Cl)cc1 , report the class its composite z-score corresponds to.
group 1

Kindly identify the class of C#CCNCc1ccccc1 .
group 3

Which class does O=C1C2C=CC(C(O)c3c(F)cccc3Cl)N(Nc3ccccc3F)C2C(=O)N1c1ccccc1 (stereo not given) fall in?
group 3

Class (by measured composite z-score) for C=CC[C@]1(C(N)=O)N=C(c2ccc(OCCCO)cc2)O[C@H]1c1ccccc1
group 3

Kindly identify the class of COCC(=C=CC[C@H](O)c1cccc(OCCO)c1)CCO .
group 1

Assign a bin to CCOC(=O)C1=CCC(c2ccc(F)cc2)N(S(=O)(=O)c2ccc(C)cc2)C1 (stereo not given)
group 2

Field: class (composite z-score) — entry: CC[C@@H]1C=C(C(=O)O)[C@H](c2cccc3ccccc23)N1S(=O)(=O)c1ccc(C)cc1
group 1

Could you place COc1ccc(-c2cc3c(c(Cc4ccccc4)n2)[Si](C(C)C)(C(C)C)OC3)cn1 in its proper category? Many thanks.
group 1
